We begin with a simple list: items and their reported IC50.
# System: HMC-1.2 cells

COMPOUND	IC50
Cc1cn(-c2cc(NC(=O)c3ccc(C)c(Nc4nccc(-c5cccnc5)n4)c3)cc(C(F)(F)F)c2)cn1	1000 to 5000 nM
Cc1nc(Nc2ncc(C(=O)Nc3c(C)cccc3Cl)s2)cc(N2CCN(CCO)CC2)n1 [dasatinib, reference compound]	200 to 500 nM
